# testTarget: T1, L3BR (residues 825-922) (human, UniProt P49916-3 825-922)
# T1 sequence (looked up): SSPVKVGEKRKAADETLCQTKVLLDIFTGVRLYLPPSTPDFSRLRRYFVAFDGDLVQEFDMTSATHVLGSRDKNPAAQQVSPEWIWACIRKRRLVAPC
# testDescription: native gel or EMSA
outcomeMeasure: binding result

binder="X1BR2 F569A (on the L626E template, residues 538-633) (domain or fragment, human, UniProt P18887 538-633, looked up) ELPDFFQGKHFFLYGEFPGDERRKLIRYVTAANGELEDYMSDRVQFVITAQEWDPSFEEALMDNPSLAFVRPRWIYSCNEKQKLLPHQEYGVVPQA" outcomemeasure="binding result" reading=binds
binder="X1BR2 N570A (on the L626E template, residues 538-633) (domain or fragment, human, UniProt P18887 538-633, looked up) ELPDFFQGKHFFLYGEFPGDERRKLIRYVTAFAGELEDYMSDRVQFVITAQEWDPSFEEALMDNPSLAFVRPRWIYSCNEKQKLLPHQEYGVVPQA" outcomemeasure="binding result" reading=binds
binder="X1BR2 L626E (residues 538-633), designated wild type (WT) in Figure 1E (domain or fragment, human, UniProt P18887 538-633, looked up) ELPDFFQGKHFFLYGEFPGDERRKLIRYVTAFNGELEDYMSDRVQFVITAQEWDPSFEEALMDNPSLAFVRPRWIYSCNEKQKLLPHQEYGVVPQA" outcomemeasure="binding result" reading=binds
binder="X1BR2 Y565A (on the L626E template, residues 538-633) (domain or fragment, human, UniProt P18887 538-633, looked up) ELPDFFQGKHFFLYGEFPGDERRKLIRAVTAFNGELEDYMSDRVQFVITAQEWDPSFEEALMDNPSLAFVRPRWIYSCNEKQKLLPHQEYGVVPQA" outcomemeasure="binding result" reading=binds
